# tested target: T1, EsCas13d, nuclease-dead (Eubacterium siraeum, UniProt B0MS50, R295A;H300A;R849A;H854A)
# T1 sequence: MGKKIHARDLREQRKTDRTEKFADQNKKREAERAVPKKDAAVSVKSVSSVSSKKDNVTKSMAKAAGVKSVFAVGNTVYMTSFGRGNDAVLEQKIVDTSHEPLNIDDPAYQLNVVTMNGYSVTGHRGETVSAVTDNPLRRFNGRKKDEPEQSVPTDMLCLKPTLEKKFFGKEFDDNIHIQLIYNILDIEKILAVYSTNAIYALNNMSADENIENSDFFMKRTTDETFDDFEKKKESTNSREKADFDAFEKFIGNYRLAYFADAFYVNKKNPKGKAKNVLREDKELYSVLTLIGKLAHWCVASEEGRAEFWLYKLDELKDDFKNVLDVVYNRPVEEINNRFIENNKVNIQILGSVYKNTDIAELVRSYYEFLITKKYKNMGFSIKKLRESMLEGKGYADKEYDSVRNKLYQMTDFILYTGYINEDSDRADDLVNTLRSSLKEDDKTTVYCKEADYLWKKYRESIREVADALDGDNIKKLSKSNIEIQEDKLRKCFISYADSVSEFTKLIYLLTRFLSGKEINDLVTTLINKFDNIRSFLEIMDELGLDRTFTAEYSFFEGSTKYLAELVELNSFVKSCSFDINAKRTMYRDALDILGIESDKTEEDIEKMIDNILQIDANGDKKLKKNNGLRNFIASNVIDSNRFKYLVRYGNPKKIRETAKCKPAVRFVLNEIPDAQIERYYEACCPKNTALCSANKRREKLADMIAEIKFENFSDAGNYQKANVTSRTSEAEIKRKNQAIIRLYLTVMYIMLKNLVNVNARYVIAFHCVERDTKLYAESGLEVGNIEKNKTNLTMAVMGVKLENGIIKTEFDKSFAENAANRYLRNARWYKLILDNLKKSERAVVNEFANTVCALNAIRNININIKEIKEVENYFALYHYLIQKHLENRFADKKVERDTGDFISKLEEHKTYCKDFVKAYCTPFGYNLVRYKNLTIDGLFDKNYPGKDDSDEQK
# assay name: crRNA (strand 1, pre-loaded); Mg2+; 40 mM Tris-HCl pH 7.5, 150 mM NaCl, 6 mM MgCl2, 1 mM DTT, 0.1% Tween-20, 0.2 mg/ml BSA; 25 C; 10 min per concentration, then washed
# measurement context: tags: His6-TwinStrep-SUMO cleaved; N-terminal SNAP kept (SNAP-Surface 488); label: 3' end held by stalled T7 RNA polymerase
pKd: −log10 of the molar value.
Rule: True for pKd not less than 8, False for anything less.

binder: target 3 G4C,A5U (mixed) RNA 1: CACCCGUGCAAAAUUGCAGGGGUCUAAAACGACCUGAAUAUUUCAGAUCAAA RNA 2: GGGAAUGGAUCCACAUCUACGAAUUCGUUUUUGAUCUGAAAUAUUCUCGUCUGCAGAUCGGAAGAGCACACGU
class name: False
--
binder: target 1 insG 3' of 19,insU 3' of 13 (mixed) RNA 1: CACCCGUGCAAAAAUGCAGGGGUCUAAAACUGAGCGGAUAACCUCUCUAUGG RNA 2: GGGAAUGGAUCCACAUCUACGAAUUCGUACCAUGAGAGAGUGUUAUCCGCUCACCGAGAUCGGAAGAGCACACGU
class name: False
--
binder: target 1 MT 5'PFS CGC 3'PFS CCG (mixed) RNA 1: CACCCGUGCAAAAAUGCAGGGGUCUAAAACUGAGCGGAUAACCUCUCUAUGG RNA 2: GGGAAUGGAUCCACAUCUACGAAUUCCGCCCAUAGAGAGGUUAUCCGCUCACCGAGAUCGGAAGAGCACACGU
class name: False
--
binder: target 2 MT 5'PFS CAU 3'PFS UUA (mixed) RNA 1: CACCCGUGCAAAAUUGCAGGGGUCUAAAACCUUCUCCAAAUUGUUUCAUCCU RNA 2: GGGAAUGGAUCCACAUCUACGAAUUCCAUAGGAUGAAACAAUUUGGAGAAGUUAAGAUCGGAAGAGCACACGU
class name: True
--
binder: target 1 A1G,U8A (mixed) RNA 1: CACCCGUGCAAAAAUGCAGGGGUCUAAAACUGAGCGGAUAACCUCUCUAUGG RNA 2: GGGAAUGGAUCCACAUCUACGAAUUCGUACCAUAGAGAGGUUAACCGCUCGCCGAGAUCGGAAGAGCACACGU
class name: False

Attention now turns to another entry.
Quick check, pKd >= 8? target 1 insU 3' of 18,insU 3' of 18 (mixed) RNA 1: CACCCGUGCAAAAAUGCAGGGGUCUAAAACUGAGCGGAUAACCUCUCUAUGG RNA 2: GGGAAUGGAUCCACAUCUACGAAUUCGUACCAUAUUGAGAGGUUAUCCGCUCACCGAGAUCGGAAGAGCACACGU
False
